Experiment: Cmax in Crl:CD(SD)IGS rat at 10 mg/kg, po by HPLC analysis
Assay type: ADME, organism-based
Set-up: dose 10 mg/kg, route oral
Conditions: in vivo
VALUE KIND: Cmax (ng/mL)
Please give a number only; it is taken to be in ng/mL.

Ask: For the molecule CC(C)[C@](O)(c1ccc2c3c(ccc2c1)C(=O)N(C)C3)c1cnc[nH]1 , give its measured Cmax value.
Result: 2940

----------
Molecular target: Steroid 17-alpha-hydroxylase/17,20 lyase (Homo sapiens, UniProt P05093)
Sequence (P05093 whole entry): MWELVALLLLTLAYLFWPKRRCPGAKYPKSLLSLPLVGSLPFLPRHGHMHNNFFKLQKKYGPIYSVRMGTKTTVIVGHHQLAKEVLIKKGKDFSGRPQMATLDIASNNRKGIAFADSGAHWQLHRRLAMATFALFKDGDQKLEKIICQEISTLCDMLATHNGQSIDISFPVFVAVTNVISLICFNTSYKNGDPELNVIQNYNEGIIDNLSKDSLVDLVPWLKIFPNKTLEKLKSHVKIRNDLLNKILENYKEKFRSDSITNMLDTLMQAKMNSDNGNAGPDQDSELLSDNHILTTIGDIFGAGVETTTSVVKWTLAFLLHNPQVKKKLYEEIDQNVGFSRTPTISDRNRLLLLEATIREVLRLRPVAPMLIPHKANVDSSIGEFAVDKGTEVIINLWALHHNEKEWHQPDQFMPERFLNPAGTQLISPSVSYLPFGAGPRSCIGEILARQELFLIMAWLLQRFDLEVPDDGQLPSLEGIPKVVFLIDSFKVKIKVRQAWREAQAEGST
VALUE KIND: pIC50
To interpret pIC50, take it as minus log10 of a concentration measured in moles per litre.

MOLECULE: CNC(=O)c1ccc2cc(C(O)(c3c[nH]cn3)C(C)C)ccc2c1C (racemic)
pIC50: 6.80

MOLECULE: CC(=O)Nc1ccc2cc(C(O)(c3c[nH]cn3)C(C)C)ccc2c1 (racemic)
pIC50: 7.41

MOLECULE: COC(=O)c1ccc2cc(C(O)(c3c[nH]cn3)C(C)C)ccc2c1 (racemic)
pIC50: 7.62

Ask: Enter measured pIC50, system Steroid 17-alpha-hydroxylase/17,20 lyase (Homo sapiens, UniProt P05093), for the molecule shown: CC(=O)c1ccc2cc(C(O)(c3c[nH]cn3)C(C)C)ccc2c1 (racemic)
Result: 7.55
